experimental protocol: chemical genetic growth profiling, strain panel (AID 1159580);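 also: tested at 20 µM; growth read once vehicle control cultures reached saturation at 30 °C; 1 = growth at the plate median or of vehicle wells; lower values mean less growth of the strain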
experimental context: S. cerevisiae deletion strains, growth OD, locus YNL067W, strain RPL9B, active compounds read low
About 2,000 (36%) of roughly 5,500 compounds were called active. Not shown: some 18% with an inconclusive outcome. The list shows a part of the results.
reported metric: normalized growth

Previously resolved entries follow.
[[record]]
smiles_notation = "CNC(C)(C)Cc1ccccc1"
reported_metric = "normalized growth"
experimental_value = "0.988 (inactive)"

[[record]]
smiles_notation = "O=C1c2ccccc2C(=O)c2ccccc21"
reported_metric = "normalized growth"
experimental_value = "0.964 (inactive)"


Okay, next one:
Record `O=C1C=C(O)c2ccccc2C1=O` . Reported normalized growth: 0.966 (inactive)
